- studyTarget: Intercellular adhesion molecule (ICAM-1), Integrin alpha-L/beta-2 (Homo sapiens, UniProt P05107+P20701)
- Sequence (P20701 whole entry): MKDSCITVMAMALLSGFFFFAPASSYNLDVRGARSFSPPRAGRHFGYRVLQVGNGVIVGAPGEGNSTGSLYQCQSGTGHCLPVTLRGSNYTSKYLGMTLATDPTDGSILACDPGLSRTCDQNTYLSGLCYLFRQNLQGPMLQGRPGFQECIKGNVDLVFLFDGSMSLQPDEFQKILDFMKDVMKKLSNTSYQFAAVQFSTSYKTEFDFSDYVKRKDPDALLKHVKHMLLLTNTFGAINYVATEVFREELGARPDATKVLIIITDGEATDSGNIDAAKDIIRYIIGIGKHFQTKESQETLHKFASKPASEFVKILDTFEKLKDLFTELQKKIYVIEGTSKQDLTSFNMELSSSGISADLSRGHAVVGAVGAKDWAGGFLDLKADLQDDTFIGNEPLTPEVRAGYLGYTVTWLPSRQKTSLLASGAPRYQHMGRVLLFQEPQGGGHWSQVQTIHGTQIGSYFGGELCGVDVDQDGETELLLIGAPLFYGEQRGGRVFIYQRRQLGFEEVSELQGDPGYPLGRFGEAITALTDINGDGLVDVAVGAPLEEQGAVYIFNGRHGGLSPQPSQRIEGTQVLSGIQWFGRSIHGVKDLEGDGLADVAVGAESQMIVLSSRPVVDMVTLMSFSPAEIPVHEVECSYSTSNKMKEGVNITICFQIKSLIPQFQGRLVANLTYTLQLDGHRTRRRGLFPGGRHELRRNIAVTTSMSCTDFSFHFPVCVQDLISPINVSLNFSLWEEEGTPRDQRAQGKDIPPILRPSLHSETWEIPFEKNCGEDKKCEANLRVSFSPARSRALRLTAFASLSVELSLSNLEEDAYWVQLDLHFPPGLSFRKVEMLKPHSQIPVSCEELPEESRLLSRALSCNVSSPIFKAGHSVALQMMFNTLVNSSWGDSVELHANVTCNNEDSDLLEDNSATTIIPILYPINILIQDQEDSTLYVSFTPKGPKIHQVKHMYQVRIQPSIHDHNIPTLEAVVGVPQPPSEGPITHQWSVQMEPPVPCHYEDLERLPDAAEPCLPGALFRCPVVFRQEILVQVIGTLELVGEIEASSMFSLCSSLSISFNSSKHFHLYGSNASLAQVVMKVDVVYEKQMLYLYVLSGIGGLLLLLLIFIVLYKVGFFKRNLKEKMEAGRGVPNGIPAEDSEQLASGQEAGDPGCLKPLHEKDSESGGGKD
- Sequence (P05362 whole entry, further chain): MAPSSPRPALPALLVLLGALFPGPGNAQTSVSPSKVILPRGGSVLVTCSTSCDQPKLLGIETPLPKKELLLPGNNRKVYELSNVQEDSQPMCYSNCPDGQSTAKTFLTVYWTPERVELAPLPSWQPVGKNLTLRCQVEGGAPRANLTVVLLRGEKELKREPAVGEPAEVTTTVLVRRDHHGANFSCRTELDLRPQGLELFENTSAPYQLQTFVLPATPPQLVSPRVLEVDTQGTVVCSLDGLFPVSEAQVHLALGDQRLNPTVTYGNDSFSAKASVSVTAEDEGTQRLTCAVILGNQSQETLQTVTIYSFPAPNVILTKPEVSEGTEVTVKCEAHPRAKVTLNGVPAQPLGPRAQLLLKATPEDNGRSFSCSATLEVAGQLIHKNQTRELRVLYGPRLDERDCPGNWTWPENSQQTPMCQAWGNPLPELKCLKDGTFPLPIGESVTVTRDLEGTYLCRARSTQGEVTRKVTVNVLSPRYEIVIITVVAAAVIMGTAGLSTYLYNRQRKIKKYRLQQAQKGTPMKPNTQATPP
- Sequence (P05107 whole entry): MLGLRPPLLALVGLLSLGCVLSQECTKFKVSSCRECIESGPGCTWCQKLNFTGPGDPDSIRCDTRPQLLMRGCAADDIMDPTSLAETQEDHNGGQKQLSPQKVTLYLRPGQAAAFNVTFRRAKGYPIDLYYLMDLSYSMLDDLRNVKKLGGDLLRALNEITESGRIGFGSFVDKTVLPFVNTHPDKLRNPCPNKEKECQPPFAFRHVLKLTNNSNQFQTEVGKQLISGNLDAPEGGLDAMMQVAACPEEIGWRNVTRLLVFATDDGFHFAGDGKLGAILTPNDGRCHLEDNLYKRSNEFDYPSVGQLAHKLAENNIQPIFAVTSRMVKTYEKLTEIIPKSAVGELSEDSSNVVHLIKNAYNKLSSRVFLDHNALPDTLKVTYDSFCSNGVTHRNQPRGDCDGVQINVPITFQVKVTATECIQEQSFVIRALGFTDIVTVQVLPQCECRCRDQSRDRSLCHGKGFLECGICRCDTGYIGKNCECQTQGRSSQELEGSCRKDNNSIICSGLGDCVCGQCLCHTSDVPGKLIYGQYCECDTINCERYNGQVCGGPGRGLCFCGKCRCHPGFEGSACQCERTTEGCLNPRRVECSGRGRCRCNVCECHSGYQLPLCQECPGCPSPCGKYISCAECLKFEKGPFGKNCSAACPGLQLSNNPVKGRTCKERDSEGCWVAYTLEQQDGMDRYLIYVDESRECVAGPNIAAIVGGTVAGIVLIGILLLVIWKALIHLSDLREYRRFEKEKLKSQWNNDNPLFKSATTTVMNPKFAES
- experimentDescription: In vitro inhibition of recombinant ICAM-1 binding to purified immobilized LFA-1 using cell-free assay
- Format: functional
assayEndpoint: IC50 (µM)
Express your answer in µM, writing the number without its unit.

See these solved cases before continuing.
CC[C@H](C)C(=O)O[C@H]1C[C@@H](C)C=C2C=C[C@H](C)[C@H](CC[C@@H]3C[C@H](CC(=O)OC)N(Cc4ccc(C(C)(C)O)cc4)C(=O)O3)[C@H]21 ... 3
CC[C@H](C)C(=O)O[C@H]1C[C@@H](C)C=C2C=C[C@H](C)[C@H](CC[C@@H]3C[C@H](CC(=O)NC)N(Cc4ccc(C(=O)O)cc4)C(=O)O3)[C@H]21 ... 0.87

Give its IC50 value. Item: CC[C@H](C)C(=O)O[C@H]1C[C@@H](C)C=C2C=C[C@H](C)[C@H](CC[C@@H]3C[C@H](CC(=O)NC)N(CCc4ccc(O)c(OC)c4)C(=O)O3)[C@H]21
0.8

# get_value(readout='IC50', item= CC[C@H](C)C(=O)O[C@H]1C[C@@H](C)C=C2C=C[C@H](C)[C@H](CC[C@@H]3C[C@H](CC(=O)NC)N(Cc4ccc(C(C)(C)O)cc4)C(=O)O3)[C@H]21 )
1.5

Report IC50 for CC[C@H](C)C(=O)O[C@H]1C[C@@H](C)C=C2C=C[C@H](C)[C@H](CC[C@@H]3C[C@H](CC(=O)NC)N(Cc4ccc(O)c(OC)c4)C(=O)O3)[C@H]21 please.
0.05

Any idea what IC50 was measured for CC[C@H](C)C(=O)O[C@H]1C[C@@H](C)C=C2C=C[C@H](C)[C@H](CC[C@@H]3C[C@H](CC(=O)OC)N(Cc4ccc(C(=O)NC)cc4)C(=O)O3)[C@H]21 ?
1.3
